The reported numbers originate from patent US20040176431A1.

biological target: CDK4/cyclin D3 (Homo sapiens); construct: made in house; host or cells: insect cells (baculovirus co-infection); assay: Inhibition of CDK4/Cyclin D retinoblastoma kinase activity; type: biochemical; conditions: test compound at 0.1 μM; read-out: % Inhib CDK4/D @ 0.1 μM
Sequence (P11802 whole entry): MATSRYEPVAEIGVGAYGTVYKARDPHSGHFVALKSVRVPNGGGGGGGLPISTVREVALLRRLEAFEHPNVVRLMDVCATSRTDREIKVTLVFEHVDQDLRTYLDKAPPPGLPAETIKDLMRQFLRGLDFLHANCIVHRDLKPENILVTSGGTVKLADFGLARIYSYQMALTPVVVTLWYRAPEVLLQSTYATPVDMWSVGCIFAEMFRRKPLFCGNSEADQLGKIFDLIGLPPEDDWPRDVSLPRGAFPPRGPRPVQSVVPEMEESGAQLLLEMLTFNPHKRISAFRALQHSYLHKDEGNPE
Sequence (P30281 1-264 partner limits assumed): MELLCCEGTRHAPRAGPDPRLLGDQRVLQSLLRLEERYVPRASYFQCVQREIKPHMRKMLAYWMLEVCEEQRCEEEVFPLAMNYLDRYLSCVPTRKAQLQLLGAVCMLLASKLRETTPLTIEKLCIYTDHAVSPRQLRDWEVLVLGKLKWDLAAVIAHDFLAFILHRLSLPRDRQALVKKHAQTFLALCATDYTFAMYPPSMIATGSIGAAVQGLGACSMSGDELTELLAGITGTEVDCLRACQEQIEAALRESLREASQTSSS
I would appreciate it if you labelled entries Fulfilled when inhibition at 0.1 µM is 40% or higher, otherwise Not fulfilled.

CCC(CC)S(=O)(=O)c1ccc(Nc2nc(N)c(C(=O)c3c(Cl)cccc3Cl)s2)cc1 ... Not fulfilled
CC(C)(CO)C[S+]([O-])c1cccc(Nc2nc(N)c(C(=O)c3c(Cl)cccc3Cl)s2)c1 (centres unmarked) ... Not fulfilled
CC(C)OC(=O)CCS(=O)(=O)c1ccc(N(C)c2nc(N)c(C(=O)c3c(Cl)cccc3Cl)s2)cc1 ... Not fulfilled

Reported inhibition at 0.1 µM reaches at least 40% for CCC[S+]([O-])c1cccc(Nc2nc(N)c(C(=O)c3c(Cl)cccc3Cl)s2)c1 (centres unmarked) ?
Not fulfilled

Does the reported inhibition at 0.1 µM for Nc1nc(Nc2cccc(SCC(O)CO)c2)sc1C(=O)c1c(Cl)cccc1Cl (centres unmarked) fall at or above the 40% mark?
Fulfilled

Could you verify whether the entry CC(=O)OCC[S+]([O-])c1ccc(Nc2nc(N)c(C(=O)c3c(Cl)cccc3Cl)s2)cc1 (centres unmarked) shows inhibition at 0.1 µM of no less than 40%?
Fulfilled

====

Test system: HCT-116 cells
Experiment: Inhibition of cell growth (MTT tetrazolium salt assay)
Format: cell-based
Settings: Homo sapiens, read-out: HCT116 IC90
Procedure: Inhibition of cell growth was measured using the tetrazolium salt assay, which is based on the ability of viable cells to reduce 3-(4,5-dimethylthiazol-2-yl)-2,5-[2H]-diphenyltetrazolium bromide (MTT) to formazan (Mosmann, J. Immunol. Meth., 65, 55-63 (1983)). The water-insoluble purple formazan product was then detected spectrophotometrically. […] After centrifugation of the plates and removal of medium, the absorbance of the formazan (solubilized in dimethylsulfoxide) was measured at 540 nm. […]
Label scheme for IC90: category 1 (below 1000 nM), category 2 (1000 nM to below 3000 nM), category 3 (3000 nM or more)

Some entries whose results are on file:
Nc1nc(Nc2ccc(S(N)(=O)=O)cc2)sc1C(=O)c1c(F)cc(F)cc1F [C(115)*, reference compound] ... category 2
Nc1nc(Nc2ccc(S(=O)(=O)N3CCC(CCO)CC3)cc2)sc1C(=O)c1c(F)cccc1F [Example A(16)] ... category 3
Nc1nc(Nc2ccc(S(=O)(=O)Nc3ccccc3)cc2)sc1C(=O)c1c(F)cccc1F [C(1)] ... category 2
Nc1nc(Nc2ccc(S(=O)(=O)NCc3ccco3)cc2)sc1C(=O)c1c(F)cccc1F [Example A(22)] ... category 1
Nc1nc(Nc2ccc(S(=O)(=O)NCCO)cc2)sc1C(=O)c1c(F)cccc1F [Example A(4)] ... category 2

Bin? Cc1cc(F)c(C(=O)c2sc(Nc3ccc(S(=O)(=O)NCCOC(C)C)cc3)nc2N)c(F)c1 [Example CC(1)]
category 1

Any idea which band Cc1ccc(CNS(=O)(=O)c2ccc(Nc3nc(N)c(C(=O)c4c(F)cc(F)cc4F)s3)cc2)o1 [B(1)] is in?
category 2

Please indicate the class for Cc1ccc(CNS(=O)(=O)c2ccc(Nc3nc(N)c(C(=O)c4c(F)cccc4F)s3)cc2)o1 [Example A(11)] based on its IC90.
category 1

Note: place this compound into its band. Item: CSc1ccc(Nc2nc(N)c(C(=O)c3c(Cl)cccc3Cl)s2)cc1 [R(2)]
category 3

Lab note: sort CNS(=O)(=O)c1ccc(Nc2nc(N)c(C(=O)c3c(F)cccc3F)s2)cc1 [C(108)*, reference compound] into the matching IC90 band.
category 2

Looking at Nc1nc(Nc2ccc(S(=O)(=O)NCCCN3CCCC3=O)cc2)sc1C(=O)c1c(F)cccc1F [A(25)] , which class would you pick?
category 3

For Nc1nc(Nc2ccc(S(=O)(=O)NCCOCCO)cc2)sc1C(=O)c1c(F)cccc1F [Example A(6)] , which IC90 bin applies?
category 3

Field: class (IC90) — entry: CC(C)OCCNS(=O)(=O)c1ccc(Nc2nc(N)c(C(=O)c3c(F)cccc3F)s2)cc1 [Example A(17)]
category 1

Which category fits this record: Nc1nc(Nc2ccc(S(=O)(=O)NCCCN3CCCC3)cc2)sc1C(=O)c1c(F)cccc1F [Example A(8)]
category 3

Input Nc1nc(Nc2ccc(S(=O)(=O)NC3CCNCC3)cc2)sc1C(=O)c1c(F)cccc1F [BB(1)] ; output its category
category 3

State the class of the compound shown: CC1CCCCN1CCCNS(=O)(=O)c1ccc(Nc2nc(N)c(C(=O)c3c(F)cccc3F)s2)cc1 (stereo not shown) [Example A(15)]
category 2
